# target_of_assay: Nucleotide-binding oligomerization domain-containing protein 1 (Mus musculus, UniProt Q8BHB0)
# Sequence (Q8BHB0 whole entry, the tested form may be a part): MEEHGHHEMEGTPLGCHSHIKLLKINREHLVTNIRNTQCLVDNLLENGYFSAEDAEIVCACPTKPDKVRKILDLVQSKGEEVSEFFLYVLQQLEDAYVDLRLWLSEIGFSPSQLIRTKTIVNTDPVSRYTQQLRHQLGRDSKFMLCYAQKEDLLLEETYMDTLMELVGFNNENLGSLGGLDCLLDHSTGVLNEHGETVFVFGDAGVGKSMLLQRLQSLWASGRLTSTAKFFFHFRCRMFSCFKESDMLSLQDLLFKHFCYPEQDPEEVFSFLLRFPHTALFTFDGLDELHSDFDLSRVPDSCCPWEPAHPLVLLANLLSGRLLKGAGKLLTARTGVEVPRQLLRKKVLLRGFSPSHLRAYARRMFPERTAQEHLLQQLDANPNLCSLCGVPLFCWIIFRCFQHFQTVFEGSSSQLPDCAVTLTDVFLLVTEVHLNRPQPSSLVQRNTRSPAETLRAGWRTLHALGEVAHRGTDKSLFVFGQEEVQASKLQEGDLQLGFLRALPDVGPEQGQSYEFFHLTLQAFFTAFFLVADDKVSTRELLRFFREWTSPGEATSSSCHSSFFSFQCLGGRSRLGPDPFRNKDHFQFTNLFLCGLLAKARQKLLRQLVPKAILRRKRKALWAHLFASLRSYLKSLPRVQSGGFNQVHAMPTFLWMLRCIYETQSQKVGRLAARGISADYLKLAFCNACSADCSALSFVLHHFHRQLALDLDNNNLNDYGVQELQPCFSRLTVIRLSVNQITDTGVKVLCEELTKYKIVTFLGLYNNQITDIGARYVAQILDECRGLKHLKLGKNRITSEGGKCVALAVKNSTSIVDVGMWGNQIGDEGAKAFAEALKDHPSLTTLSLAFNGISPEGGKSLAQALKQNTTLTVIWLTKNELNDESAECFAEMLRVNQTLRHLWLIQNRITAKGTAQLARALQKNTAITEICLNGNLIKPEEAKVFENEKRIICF
# test_name: Antagonist activity at mouse NOD1 expressed in HEK-Blue cells assessed as decrease in SEAP secretion incubated for 3 hrs followed by C12-iE-DAP stimulation for 20 hrs by spectrophotometry
# Assay type: cell-based, HEK-Blue mNOD1
Classify: Criterion met when IC50 is strictly less than 300 nM; Criterion not met when IC50 is not.

>>> class_label("O=c1c2cc(Cl)ncc2nc(Cl)n1-c1ccc(Cl)c(NS(=O)(=O)c2ccc3ncsc3c2)c1")
"Criterion met"
>>> class_label("C=CS(=O)(=O)Nc1cc(-n2c(Cl)nc3cnc(Cl)cc3c2=O)ccc1Cl")
"Criterion not met"
>>> class_label("Cc1nc2ccc(Cl)cc2c(=O)n1-c1ccc(Cl)c(NS(=O)(=O)c2ccccc2F)c1")
"Criterion not met"
>>> class_label("N#Cc1ccccc1S(=O)(=O)Nc1cc(-n2c(Cl)nc3cnc(Cl)cc3c2=O)ccc1Cl")
"Criterion met"
>>> class_label("O=c1c2cc(C(F)(F)F)ccc2nc(Cl)n1-c1ccc(Cl)c(NS(=O)(=O)c2ccccc2F)c1")
"Criterion not met"
>>> class_label("CS(=O)(=O)c1ccc2nc(Cl)n(-c3ccc(Cl)c(NS(=O)(=O)c4ccc([N+](=O)[O-])cc4F)c3)c(=O)c2c1")
"Criterion met"
>>> class_label("O=c1c2cc(Cl)ncc2nc(Cl)n1-c1ccc(Cl)c(NS(=O)(=O)c2ccccc2F)c1")
"Criterion met"
>>> class_label("O=c1c2ccncc2nc(Cl)n1-c1ccc(Cl)c(NS(=O)(=O)c2cc(F)c(F)cc2F)c1")
"Criterion met"
